B1: NELF-E aptamer (parent)
chain: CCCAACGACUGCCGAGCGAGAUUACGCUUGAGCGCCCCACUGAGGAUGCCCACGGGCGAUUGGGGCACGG

Variants of: B1
Assay overview: HiTS-RAP
Measurement conditions: with NELF-E (Drosophila)
Under this convention, True denotes Kd strictly below 9 nM and False denotes Kd at or above 9 nM.

Below, 8 variants whose answers are already recorded.
[[record]]
mutation_spec = "G7U G26A"
class = "True"

[[record]]
mutation_spec = "A8G G11A"
class = "True"

[[record]]
mutation_spec = "U23G G26U"
class = "True"

[[record]]
mutation_spec = "U10A C57U"
class = "True"

[[record]]
mutation_spec = "U22G G54U"
class = "True"

[[record]]
mutation_spec = "U29G G48A"
class = "False"

[[record]]
mutation_spec = "C9G G54U"
class = "True"

[[record]]
mutation_spec = "G11U U47G"
class = "True"


# input Find out if reported Kd for C6U A24G is less than 9 nM
# output True

# input Find out if reported Kd for A8G A39G is less than 9 nM
# output False
